Origin of the recorded values: patent US11974969B2

# System: HEK293T cells
# TEST_METHOD_NOTES: Flow cytometry (CFlow): delivery of FAM-labeled single-stranded PGY-sRNA-6 into HEK293T cells by different concentrations of single sphingosine derivative (Example 1)
# Format: cell-based, human
# CONDITION_LABEL: single sphingosine derivative 37.5 μg/mL; FAM-labeled PGY-ssRNA-6 100 nM; 293T cells; fluorescence shift by flow cytometry
Lipid delivery group (different concentrations of lipids) 37.5 μg/mL vs 7%: less than gives T; not less than gives F.

INSERT INTO assay_data (compound, study_system, category_label) VALUES
  ('CCCCCCCCCCCCCCCC(=O)C(N)CO.Cl (centres unmarked) [So-8, 3-keto Dihydrosphingosine]', 'HEK293T cells', 'T'),
  ('CCCCCCCCCCCCCCCCC(=O)N[C@@H](CO)[C@H](O)CCCCCCCCCCCCCCC', 'HEK293T cells', 'T'),
  ('CCCCCCCCCCCCC/C=C/[C@@H](O)[C@H](CO)N(C)C', 'HEK293T cells', 'T'),
  ('CCCCCCCCCCCCC/C=C/[C@@H](O)[C@H](CO)NC(=O)CCCCCCCCCCCCCC', 'HEK293T cells', 'F'),
  ('CCCCCCCCCCCCCCC[C@@H](O)[C@@H](N)CO (stereo in doubt)', 'HEK293T cells', 'F'),
  ('CCCCCCCCCCCCC/C=C/[C@@H](O)[C@@H](N)CO[C@@H]1O[C@H](CO)[C@@H](O)[C@H](O)[C@H]1O [So-49, 1-β-D-Glucosylsphingosine (synthetic)]', 'HEK293T cells', 'F'),
  ('CC(C)CCCCCCCCCCC[C@@H](O)[C@@H](N)CO', 'HEK293T cells', 'F');

* * *

# System: HEK293T cells
# TEST_METHOD_NOTES: Flow cytometry (CFlow): delivery of FAM-labeled single-stranded PGY-sRNA-6 into HEK293T cells by different concentrations of single sphingosine derivative (Example 1)
# Type: cell-based, human
# CONDITION_LABEL: single sphingosine derivative 37.5 μg/mL; FAM-labeled PGY-ssRNA-6 100 nM; 293T cells; fluorescence shift by flow cytometry
MEASURE: Lipid delivery group (different concentrations of lipids) 37.5 μg/mL (%)

INSERT INTO measurements (molecule, reported) VALUES
  ('CCCCCCCCCCCCC/C=C/[C@@H](O)[C@H](CO)NC(=O)CCCCCNC(=O)CCCC[C@@H]1SC[C@@H]2NC(=O)N[C@@H]21 [So-3, N-hexanoyl-biotin-D-erythro-Sphingosine]', 3.40),
  ('CCCCCCCCCCCCCCCCCC(=O)N[C@@H](CO)[C@H](O)[C@H](O)CCCCCCCCCCCCCC [So-69]', 3.30),
  ('CCCCCCCCCCCCCCC[C@H](O)[C@H](N)CO [So-46, C18 L-erythro Sphinganine (d18:0)]', 6.90);

* * *

# System: HEK293T cells
# TEST_METHOD_NOTES: Flow cytometry (CFlow): delivery of FAM-labeled single-stranded PGY-sRNA-6 into HEK293T cells by different concentrations of single sphingosine derivative (Example 1)
# Assay type: cell-based, human
# CONDITION_LABEL: single sphingosine derivative 37.5 μg/mL; FAM-labeled PGY-ssRNA-6 100 nM; 293T cells; fluorescence shift by flow cytometry
Please note: MET applies when Lipid delivery group (different concentrations of lipids) 37.5 μg/mL is 7% or greater, and NOT MET applies otherwise.

INSERT INTO results (compound, category_label) VALUES
  ('CCCCCCCCCCCCCCCCCC(=O)N[C@@H](CO)[C@H](O)CCCCCCCCCCCCCCC', 'NOT MET'),
  ('CCC/C=C\CCCCCCCCCC[C@@H](O)[C@H](C)N [So-7, 14Z-1-Deoxysphingosine (d18:1)]', 'NOT MET'),
  ('CCCCCCCCCCCCC/C=C/[C@@H](O)[C@@H](N)CO[C@@H]1OC(CO)[C@@H](O)C(O)C1O (some centres unmarked)', 'MET'),
  ('CCCCCCCCCCCCCC=CC(O)C(COP(=O)(O)OCCN)NC(C)=O (centres unmarked)', 'NOT MET'),
  ('[2H]C([2H])([2H])C([2H])([2H])C([2H])([2H])C([2H])([2H])CCCCCCCCC/C=C/[C@@H](O)[C@@H](N)CO', 'NOT MET'),
  ('CCCCCCCCCCCC/C=C/[C@@H](O)[C@@H](N)CO', 'NOT MET'),
  ('CCCCCCCCCC(=O)C(N)CO.Cl (centres unmarked)', 'MET'),
  ('CCCCCCCCCCCCCC[C@@H](O)[C@@H](N)COP(=O)(O)O', 'NOT MET');

* * *

Measured Lipid delivery group (different concentrations of lipids) 37.5 μg/mL by item
# Tested on: HEK293T cells
# TEST_METHOD_NOTES: Flow cytometry (CFlow): delivery of FAM-labeled single-stranded PGY-sRNA-6 into HEK293T cells by different concentrations of single sphingosine derivative (Example 1)
# Format: cell-based, human
# CONDITION_LABEL: single sphingosine derivative 37.5 μg/mL; FAM-labeled PGY-ssRNA-6 100 nM; 293T cells; fluorescence shift by flow cytometry
MEASURE: Lipid delivery group (different concentrations of lipids) 37.5 μg/mL (%)

INSERT INTO assay_data (compound, reported) VALUES
  ('CCCCCCCCCCCCC/C=C/[C@@H](O)[C@H](CO)NC(=O)CCCCCCCCCCCCCCCCCCCCCCCCCCCCCO [So-14, ω-hydroxy-C30 Sphingosine (d18:1/30:0)]', 4.30),
  ('CCCCCCCCCCCCCCC[C@@H](O)[C@H](CO)NC(=O)CCCCCCC [So-12, N-octanoyl-D-erythro-Dihydrosphingosine]', 1.60),
  ('CCCCCCCCCCCCCC[C@@H](O)[C@@H](O)[C@H](CO)NC(=O)CCCCC', 2.80),
  ('CCCCCCCCCCCCC/C=C/[C@@H](O)[C@H](CO)NC(=O)CCCCCCCCCCC [So-13, N-Lauroyl-D-erythro-Sphingosine]', 5.20),
  ('CCCCCCCCCCCCC/C=C/[C@H](O)[C@H](N)CO', 11.40),
  ('CCCCCCCCCCCCCCC[C@@H](O)[C@H](CO)N(C)C', 12.70),
  ('CCCCCCCCCCCCCCCC(=O)N[C@@H](CO)[C@H](O)[C@H](O)CCCCCCCCCCCCCC', 3.90);

* * *

# Tested on: HEK293T cells
# TEST_METHOD_NOTES: Flow cytometry (CFlow): delivery of FAM-labeled single-stranded PGY-sRNA-6 into HEK293T cells by different concentrations of single sphingosine derivative (Example 1)
# Format: cell-based, human
# CONDITION_LABEL: single sphingosine derivative 37.5 μg/mL; FAM-labeled PGY-ssRNA-6 100 nM; 293T cells; fluorescence shift by flow cytometry
MEASURE: Lipid delivery group (different concentrations of lipids) 37.5 μg/mL (%)

INSERT INTO assay_data (compound, reported) VALUES
  ('CCCCCCCCCCCCCCCC(=O)N[C@@H](CO)[C@H](O)CCCCCCCCCCCCCCC [So-10]', 2.50),
  ('CCCCCCCCCCCCC/C=C/[C@@H](O)[C@@H](N)CO [So-26, D-erythro-Sphingosine C-18]', 0.50),
  ('CCCCCCCCCCCCC/C=C/[C@@H](O)[C@@H](N)COP(=O)(O)O [So-5, Sphingosine-1-Phosphoric Acid]', 2.40),
  ('CCCCCCCCCCCCC/C=C/[C@@H](O)[C@H](CO[C@@H]1O[C@H](CO)[C@H](O)[C@H](O)[C@H]1O)NC(=O)CCCCCCCCCCCCCC [So-61]', 7.00),
  ('CCCCCCCCCC/C=C/[C@@H](O)[C@@H](N)CO [So-73, 2S-amino-4E-pentadecene-1,3R-diol]', 9.50),
  ('CCCCCCCCCCCCC/C=C/[C@@H](O)[C@H](CO)NC(=O)CCCCCCCCCCCCCCCCCC [So-65]', 6.80),
  ('CCCCCCCCCCCCCC[C@@H](O)[C@@H](O)[C@@H](N)CO [So-63, 2S-amino-1,3S,4R-octadecanetriol]', 6.50);
